Please provide measured pEC50 for the entries that follow.
# System name: human somatostatin receptor subtype 2 (Homo sapiens, UniProt P30874)
# Construct: expressed in transfected cells
# Sequence (P30874 whole entry): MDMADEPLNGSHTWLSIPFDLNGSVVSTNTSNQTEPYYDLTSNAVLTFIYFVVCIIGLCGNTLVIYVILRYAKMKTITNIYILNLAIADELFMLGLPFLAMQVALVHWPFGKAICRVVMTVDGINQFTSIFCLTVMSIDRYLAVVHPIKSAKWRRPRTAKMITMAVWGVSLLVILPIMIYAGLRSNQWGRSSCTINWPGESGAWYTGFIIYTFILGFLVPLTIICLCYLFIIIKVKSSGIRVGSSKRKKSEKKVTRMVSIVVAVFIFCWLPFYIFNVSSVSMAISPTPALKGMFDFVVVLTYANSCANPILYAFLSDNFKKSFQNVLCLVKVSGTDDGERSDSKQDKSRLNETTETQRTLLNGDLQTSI
# Experiment: Functional assay for SSTR2 agonists (HTRF cAMP)
# Type: cell-based
# Condition summary: CHO-K1 cells stably expressing human SST2; NKH477-stimulated cAMP; 20 min at 37 C; read-out: hSST2 cAMP Avg EC50
Answers are plain numbers, as −log10 of the molar value.

>>> data_value("CC[C@H](C)[C@@H]([C@@H](CC(=O)N1CCC[C@H]1[C@H](OC)[C@@H](C)C(=O)N[C@H](C)[C@@H](O)c1ccccc1)OC)N(C)C(=O)[C@@H](NC(=O)[C@H](C(C)C)N(C)C(=O)OCc1ccc(NC(=O)[C@H](C)NC(=O)[C@@H](NC(=O)CCOCCC(=O)NCCNc2ncc(-c3cc(C)cc(F)c3)c(N3CCC(N)CC3)c2-c2nc3ccc(Cl)cc3[nH]2)C(C)C)c(O[C@@H]2O[C@H](C(=O)NCC(=O)O)[C@@H](O)[C@H](O)[C@H]2O)c1)C(C)C [Compound 33]")
9.82
>>> data_value("CC[C@H](C)[C@@H]([C@@H](CC(=O)N1CCC[C@H]1[C@H](OC)[C@@H](C)C(=O)N[C@H](C)[C@@H](O)c1ccccc1)OC)N(C)C(=O)[C@@H](NC(=O)[C@H](C(C)C)N(C)C(=O)OCc1ccc(NC(=O)[C@H](CCCNC(N)=O)NC(=O)[C@@H](NC(=O)CCOCCC(=O)NCCNc2ncc(-c3cc(C)cc(F)c3)c(N3CCC(N)CC3)c2-c2nc3ccc(Cl)cc3[nH]2)C(C)C)c(O[C@@H]2O[C@H](C(=O)NCCS(=O)(=O)O)[C@@H](O)[C@H](O)[C@H]2O)c1)C(C)C [Compound 208]")
10.21
>>> data_value("CC[C@H](C)[C@@H]([C@@H](CC(=O)N1CCC[C@H]1[C@H](OC)[C@@H](C)C(=O)N[C@H](C)[C@@H](O)c1ccccc1)OC)N(C)C(=O)[C@@H](NC(=O)[C@H](C(C)C)N(C)C(=O)OCc1ccc(NC(=O)[C@H](CCCNC(N)=O)NC(=O)[C@@H](NC(=O)CCOCCC(=O)NCCCNc2ncc(-c3cc(C)cc(F)c3)c(N3CCC(N)CC3)c2-c2nc3ccc(Cl)cc3[nH]2)C(C)C)c(O[C@@H]2O[C@H](C(=O)O)[C@@H](O)[C@H](O)[C@H]2O)c1)C(C)C [Compound 195]")
9.46

Now look at this entry.
Task item: Entry CC[C@H](C)[C@@H]([C@@H](CC(=O)N1CCC[C@H]1[C@H](OC)[C@@H](C)C(=O)N[C@H](C)[C@@H](O)c1ccccc1)OC)N(C)C(=O)[C@H](C)NC(=O)[C@H](C(C)C)N(C)C(=O)OCc1ccc(NC(=O)[C@H](C)NC(=O)[C@@H](NC(=O)CCOCCNC(=O)CCNc2ncc(-c3cc(C)cc(F)c3)c(N3CCC(N)CC3)c2-c2nc3ccc(Cl)cc3[nH]2)C(C)C)c(O[C@@H]2O[C@H](C(=O)O)[C@@H](O)[C@H](O)[C@H]2O)c1 [Compound 194] , system human somatostatin receptor subtype 2 (Homo sapiens, UniProt P30874): what pEC50 was measured?
Reply: 9.80
